Just for reference, patent US10968225B2 is where these values come from.

# target-desc: mutant CFTR (Homo sapiens, UniProt P13569, DEL508-508)
# Construct: expressed in transfected cells
# Sequence (P13569 with tags, fused parts or gaps DEL508-508): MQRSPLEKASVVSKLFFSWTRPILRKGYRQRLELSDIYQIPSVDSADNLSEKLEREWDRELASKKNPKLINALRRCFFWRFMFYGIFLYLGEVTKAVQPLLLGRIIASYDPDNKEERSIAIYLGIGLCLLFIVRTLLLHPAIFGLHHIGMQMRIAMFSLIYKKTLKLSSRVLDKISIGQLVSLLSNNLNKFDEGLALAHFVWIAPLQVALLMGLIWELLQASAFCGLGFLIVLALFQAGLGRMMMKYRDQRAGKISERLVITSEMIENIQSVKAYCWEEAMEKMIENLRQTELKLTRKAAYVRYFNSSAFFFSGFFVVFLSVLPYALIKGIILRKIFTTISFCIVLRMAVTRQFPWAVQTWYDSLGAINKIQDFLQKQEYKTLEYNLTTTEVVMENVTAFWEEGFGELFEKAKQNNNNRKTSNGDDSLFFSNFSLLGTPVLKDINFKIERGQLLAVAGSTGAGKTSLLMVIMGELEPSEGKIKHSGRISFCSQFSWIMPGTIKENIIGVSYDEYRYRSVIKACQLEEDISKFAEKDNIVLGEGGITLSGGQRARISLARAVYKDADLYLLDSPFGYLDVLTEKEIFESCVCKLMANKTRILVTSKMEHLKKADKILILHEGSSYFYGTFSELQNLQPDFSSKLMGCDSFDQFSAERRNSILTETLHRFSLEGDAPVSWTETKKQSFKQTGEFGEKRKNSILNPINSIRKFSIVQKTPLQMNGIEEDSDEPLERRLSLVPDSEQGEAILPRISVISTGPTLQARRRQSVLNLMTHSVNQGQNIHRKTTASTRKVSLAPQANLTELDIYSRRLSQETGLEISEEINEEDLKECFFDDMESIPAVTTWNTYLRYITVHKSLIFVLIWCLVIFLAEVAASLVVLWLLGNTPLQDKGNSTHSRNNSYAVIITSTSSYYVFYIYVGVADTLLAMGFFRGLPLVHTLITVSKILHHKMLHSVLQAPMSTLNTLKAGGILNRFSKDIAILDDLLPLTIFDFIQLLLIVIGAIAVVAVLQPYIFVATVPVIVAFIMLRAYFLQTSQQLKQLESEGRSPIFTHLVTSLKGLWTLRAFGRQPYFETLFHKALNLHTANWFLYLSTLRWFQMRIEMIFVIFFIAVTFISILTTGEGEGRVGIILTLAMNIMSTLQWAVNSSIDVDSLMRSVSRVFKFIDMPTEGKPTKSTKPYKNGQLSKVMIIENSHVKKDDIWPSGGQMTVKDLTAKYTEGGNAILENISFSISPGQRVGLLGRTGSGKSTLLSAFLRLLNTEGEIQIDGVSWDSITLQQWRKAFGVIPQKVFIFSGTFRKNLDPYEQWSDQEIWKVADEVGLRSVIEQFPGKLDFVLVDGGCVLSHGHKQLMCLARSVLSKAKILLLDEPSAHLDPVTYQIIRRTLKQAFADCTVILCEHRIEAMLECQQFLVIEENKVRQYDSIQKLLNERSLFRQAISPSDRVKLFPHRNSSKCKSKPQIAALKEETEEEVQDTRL
# assay-explanation: Fluorescence (HS-YFP) assay for CFTR activity, corrector assay
# Assay type: cell-based
# test-conditions: CFBE41o- and FRT cells with stable expression of mutant CFTR, read-out: activity (EC50)
readout-name: EC50

The reported EC50 of the compound "COC(=O)c1ccc(S(=O)(=O)N2CCc3c(C(F)(F)F)nn(-c4cccc(C(=O)N(C)c5ccc6c(c5)OCO6)c4)c3C2)cc1" was < 1000 nM

The reported EC50 of the compound "COC(=O)c1ccc(S(=O)(=O)N2CCc3c(c(C(F)(F)F)nn3-c3cccc(C(=O)N(C)c4ccc5c(c4)OCO5)c3)C2)cc1" was < 1000 nM

The reported EC50 of the compound "CN(C(=O)c1cccc(-n2nc(C(F)(F)F)c3c2CCN(S(=O)(=O)c2ccc(C#N)cc2)C3)c1)c1ccc2c(c1)OCO2" was < 1000 nM
